Consider the following compounds; for each one, report its pIC50.
# targetOrTestSystem: KRas G12D/Q61H double mutant (Homo sapiens (Human), UniProt P01116, G12D/Q61H)
# Sequence (P01116-2 other isoform, or with tags, fused parts or gaps G12D/Q61H): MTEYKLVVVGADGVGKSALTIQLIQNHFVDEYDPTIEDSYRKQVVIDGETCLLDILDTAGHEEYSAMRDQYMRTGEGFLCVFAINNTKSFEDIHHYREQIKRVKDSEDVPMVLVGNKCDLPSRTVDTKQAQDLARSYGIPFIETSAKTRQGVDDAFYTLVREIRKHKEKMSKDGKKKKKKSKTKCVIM
# testMethodNotes: Ras GTP binding domain inhibition assay (labeled GTP)
# cond: serial dilution; read-out: KRas G12D Q61H (classes E-H, IC50)
pIC50: −log10 of the molar value.

Which pIC50 is reported for this compound? CN1CCN(c2nc(-c3ccccn3)nc3scc(C(=O)NCCc4cnc(O)nc4)c23)CC1 [drawing 2899]
< 4.52

Which pIC50 is reported for this compound? COC(=O)c1cc2nc(-c3ccccn3)nc(O)c2s1 [drawing 2907]
< 4.52

Which pIC50 is reported for this compound? O=C(c1csc2c(O)nc(-c3ccccn3)nc12)N1CCN(c2ccccc2)CC1 [drawing 2680]
5.00 to 5.30

Which pIC50 is reported for this compound? Oc1nc(-c2ccccn2)nc2c(-c3cc(F)cc(F)c3)csc12 [drawing 2900]
< 4.52

----------
# System: MAPK phosphorylation in PANC-1 pancreatic cancer cell line
# testMethodNotes: MAPK cell-based phosphorylation assay (cell-direct ELISA, EGF stimulation)
# cond: Homo sapiens, * = tested at 10 μM
valueKind: inhibition at 10 µM

Which inhibition at 10 µM is reported for this compound? COC(=O)c1csc2nc(-c3ccccn3)nc(N)c12 [drawing 1232]
25 to 50%

Which inhibition at 10 µM is reported for this compound? Nc1nc(O)c2sc(-c3cccc(C(=O)NCc4ncc[nH]4)c3)cc2n1 [drawing 1305]
0%

Which inhibition at 10 µM is reported for this compound? CC(C)COc1ccc(-c2c(-c3ccccc3)sc3c(O)nc(-c4nccn4C)nc23)cn1 [drawing 1347]
51 to 75%

Which inhibition at 10 µM is reported for this compound? Nc1nc(O)c2sc(-c3cccc(C(=O)NCc4cccc(O)n4)c3)cc2n1 [drawing 1306]
0%

Which inhibition at 10 µM is reported for this compound? COCCNc1nc(-c2ccncn2)nc2sc(-c3ccccc3)c(-c3ccccc3)c12 [drawing 1334]
1 to 25%

Which inhibition at 10 µM is reported for this compound? O=C(CCn1ccnc1)Nc1nc(-c2ccccn2)nc2sccc12 [drawing 1226]
1 to 25%

Which inhibition at 10 µM is reported for this compound? Cn1cnc(-c2nc(O)c3sc(-c4ccncc4)c(-c4ccccc4)c3n2)c1 [drawing 1309]
0%

Which inhibition at 10 µM is reported for this compound? COc1cnc(CNC(=O)c2c(C)sc3c(O)nc(-c4ccccn4)nc23)[nH]c1=O [drawing 1283]
0%

Which inhibition at 10 µM is reported for this compound? Nc1nc(-c2ccccn2)nc(C(=O)NCCc2ccncc2)c1Oc1ccccc1 [drawing 1311]
1 to 25%

Which inhibition at 10 µM is reported for this compound? COCCNc1nc(-c2nccn2C)nc2sc(-c3ccccc3)c(-c3ccccc3)c12 [drawing 1295]
76 to 100%

Which inhibition at 10 µM is reported for this compound? Cc1cc2nc(-c3ccccn3)nc(O)c2s1 [drawing 1246]
25 to 50%

Which inhibition at 10 µM is reported for this compound? COCCNc1nc(-c2ccccn2)nc(-c2cccc(OCCN(C)C)c2)c1Oc1ccccc1 [drawing 1289]
25 to 50%

Which inhibition at 10 µM is reported for this compound? CC(O)CNc1nc(-c2nccn2C)nc2sc(-c3ccccc3)c(-c3ccccc3)c12 (stereo not shown) [drawing 1329]
1 to 25%

Which inhibition at 10 µM is reported for this compound? Cn1cnc(-c2nc(O)c3c(-c4ccccc4)c(-c4ccncc4)sc3n2)c1 [drawing 1288]
25 to 50%

Which inhibition at 10 µM is reported for this compound? COCCNc1nc(-c2cn(C)cn2)nc2sc(-c3ccccc3)c(-c3ccccc3)c12 [drawing 1343]
76 to 100%

Which inhibition at 10 µM is reported for this compound? O=C(c1csc2c(O)nc(-c3ccccn3)nc12)N1CCNC(c2cn[nH]c2)C1 (stereo not shown) [drawing 1200]
25 to 50%

Which inhibition at 10 µM is reported for this compound? Nc1nc(-c2ccccn2)nc2scc(C(=O)O)c12 [drawing 1242]
1 to 25%

Which inhibition at 10 µM is reported for this compound? Cn1ccnc1-c1nc(O)c2scc(-c3cccc(Cl)c3)c2n1 [drawing 1377]
25 to 50%

Which inhibition at 10 µM is reported for this compound? Oc1nc(-c2ccccn2)nc2c(C3CCCC3)csc12 [drawing 1256]
76 to 100%

Which inhibition at 10 µM is reported for this compound? COC(=O)c1c(C)sc2c(O)nc(-c3ccccn3)nc12 [drawing 1247]
1 to 25%

Which inhibition at 10 µM is reported for this compound? COc1cnc(CNC(=O)c2csc3c(O)nc(-c4ccccn4)nc23)[nH]c1=O [drawing 1280]
0%

Which inhibition at 10 µM is reported for this compound? COc1cccc(-c2csc3c(O)nc(-c4ccccn4)nc23)c1 [drawing 1211]
1 to 25%
